The origin of these recorded values is paper PMC3218832.

Exercise: state measured binding signal for each of the sequences provided.
biological target: RELARELA (p65 homodimer) (Homo sapiens, UniProt Q04206 1-307); experiment: protein binding microarray; high values mean tight binding; conditions: dsDNA, one strand shown
Sequence (Q04206 1-307): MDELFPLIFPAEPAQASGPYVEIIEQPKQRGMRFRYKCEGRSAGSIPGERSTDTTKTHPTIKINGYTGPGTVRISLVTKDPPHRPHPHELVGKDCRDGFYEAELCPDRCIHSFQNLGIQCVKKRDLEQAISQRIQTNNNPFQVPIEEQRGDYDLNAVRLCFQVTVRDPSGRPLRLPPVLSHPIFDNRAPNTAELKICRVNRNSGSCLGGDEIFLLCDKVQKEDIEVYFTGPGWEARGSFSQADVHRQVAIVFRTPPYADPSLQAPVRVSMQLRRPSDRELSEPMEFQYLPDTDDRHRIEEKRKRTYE
One number for each entry, in z-score.

Some sequences with recorded binding signal:
INSERT INTO results (sequenceinput, attributemeasured, measvalue) VALUES
  ('AAGGACTCCCC', 'binding signal', 0.78),
  ('AAAGGATCCCT', 'binding signal', -0.446),
  ('AAGATAATCCT', 'binding signal', -0.605),
  ('AGGAAGCCCCC', 'binding signal', 0.317),
  ('CAATTTATCCT', 'binding signal', -0.0381),
  ('CGGGAACCCCC', 'binding signal', 2.26),
  ('AAAAAGCCCCC', 'binding signal', 1.22),
  ('GGGTATATCCC', 'binding signal', 1.19),
  ('AGGATAGCCCT', 'binding signal', -0.44),
  ('GAAATCCTCCT', 'binding signal', -0.0844);

Return reported binding signal values for all items listed beneath this line.
1. CGAGTTCTCCC
2. GAAGTTGTCCT

Outgoing:
0.00528
-0.136

Return reported binding signal values for all items listed beneath this line.
1. AAAGGCCTCCC
2. CAAAGGGTCCC
3. CGAGTAACCCC
4. GAAAAGGCCCC
5. GAGAAAGTCCC
6. GGAAATTTCCT

Outgoing:
[-1.18, -0.377, -0.498, -0.413, 1.97, 3.45]

Return reported binding signal values for all items listed beneath this line.
1. AAAGTCGTCCT
2. AGGTGCGTCCT

Outgoing:
-0.192
-0.881

----------
molecular target: C-Rel subunit;p50 subunit (Homo sapiens;Homo sapiens, UniProt Q04864;P19838 1-285;7-356); experiment: protein binding microarray; high values mean tight binding; conditions: dsDNA, one strand shown
Sequence (Q04864 1-285, chain 1 of 2): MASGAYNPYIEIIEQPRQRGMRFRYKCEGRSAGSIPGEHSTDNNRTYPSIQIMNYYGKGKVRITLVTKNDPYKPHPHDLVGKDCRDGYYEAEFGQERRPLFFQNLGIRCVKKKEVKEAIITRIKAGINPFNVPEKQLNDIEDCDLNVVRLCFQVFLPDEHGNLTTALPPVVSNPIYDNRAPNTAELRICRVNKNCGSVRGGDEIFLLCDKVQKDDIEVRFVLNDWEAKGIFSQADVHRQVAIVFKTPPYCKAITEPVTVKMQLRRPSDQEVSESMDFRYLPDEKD
Sequence (P19838 7-356, chain 2 of 2): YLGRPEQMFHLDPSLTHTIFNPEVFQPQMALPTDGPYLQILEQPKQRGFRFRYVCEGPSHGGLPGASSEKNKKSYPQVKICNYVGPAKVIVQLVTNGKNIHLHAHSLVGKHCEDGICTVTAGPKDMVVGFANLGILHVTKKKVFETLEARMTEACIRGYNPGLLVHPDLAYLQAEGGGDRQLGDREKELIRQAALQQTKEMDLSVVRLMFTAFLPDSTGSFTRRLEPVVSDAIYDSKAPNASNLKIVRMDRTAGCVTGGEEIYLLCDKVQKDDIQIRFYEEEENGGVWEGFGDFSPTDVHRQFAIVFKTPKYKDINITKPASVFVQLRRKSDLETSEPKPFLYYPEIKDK
Exercise: state measured binding signal for each of the sequences provided.
Answers are plain numbers, in z-score.

INSERT INTO results (sequenceinput, measvalue) VALUES
  ('AGGAATATCCC', 0.402),
  ('AAAATACCCCT', 1.26),
  ('GGATTAGCCCC', 0.535);

Return reported binding signal values for all items listed beneath this line.
1. AAATTGGCCCC
2. CAAGTGGCCCT
3. GAATTGTTCCT

Outgoing:
[0.04, -1.14, -0.937]

Return reported binding signal values for all items listed beneath this line.
1. CAGTGGGTCCT
2. CGGGTATTCCT

Outgoing:
[-1.36, 0.468]

Return reported binding signal values for all items listed beneath this line.
1. GGATGAACCCT
2. GGGTAGTTCCT
3. CGATAGCCCCC
4. GAGATTACCCT
5. AGGAGAACCCT
6. AAAGGACTCCT

Outgoing:
-1.23
0.249
0.288
0.426
-0.871
-1.03

Return reported binding signal values for all items listed beneath this line.
1. CAGAAAATCCC
2. AGATGAACCCC
3. GAGAGGGTCCC
4. AGAGGTTCCCC

Outgoing:
1. 0.902
2. -0.464
3. -0.406
4. 1.37

Incoming: Output binding signal of `CAATAGCCCCT`
Outgoing: 0.189

----------
target: RELA (p65) subunit of heterodimer;p50 subunit (Homo sapiens;Homo sapiens, UniProt Q04206;P19838 1-307;7-356); assay: protein binding microarray; high values mean tight binding; conditions: dsDNA, one strand shown
Sequence (Q04206 1-307, chain 1 of 2): as the sequence (Q04206 1-307) above
Sequence (P19838 7-356, chain 2 of 2): as the sequence (P19838 7-356, chain 2 of 2) above
Please note: binding signal exactly at -0.7 z-score is condition not met. Only values below -0.7 z-score get condition met.

Incoming: Take the sequence `CAGGGAGTCCT` and say whether its binding signal is less than -0.7 z-score.
Outgoing: condition not met
